Values compiled from ChEMBL document CHEMBL1201862.

# Measured target: Cysteine protease ATG4B (Homo sapiens, UniProt Q9Y4P1);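 also: Fluorescence-based dose-response confirmation assay measuring inhibition of ATG4B activity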
# Sequence (Q9Y4P1 whole entry): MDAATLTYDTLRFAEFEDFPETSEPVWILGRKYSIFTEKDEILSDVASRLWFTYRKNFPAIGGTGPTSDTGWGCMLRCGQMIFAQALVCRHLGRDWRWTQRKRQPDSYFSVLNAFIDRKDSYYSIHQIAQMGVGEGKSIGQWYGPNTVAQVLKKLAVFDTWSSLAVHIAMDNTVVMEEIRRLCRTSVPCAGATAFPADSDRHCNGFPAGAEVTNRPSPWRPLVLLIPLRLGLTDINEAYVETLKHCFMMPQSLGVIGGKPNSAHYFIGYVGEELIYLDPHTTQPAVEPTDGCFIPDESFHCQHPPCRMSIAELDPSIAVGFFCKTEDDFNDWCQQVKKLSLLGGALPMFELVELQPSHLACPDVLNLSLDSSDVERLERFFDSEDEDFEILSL
# Type: functional
The source made the active and inactive calls.

[
  {
    "Compound": "CCc1ccc(-n2cccc2/C=C2/C(=N)N3C(=NC2=O)SN=C3S(C)(=O)=O)cc1",
    "IC50": "11.2 µM (active)"
  },
  {
    "Compound": "Cc1ccc(C(=O)O/N=C2\\CCCc3ccccc32)cc1",
    "IC50": "8.65 µM (active)"
  },
  {
    "Compound": "COC(=O)C(C)N(C(=O)c1ccc(C(=O)c2ccccc2)cc1)c1c(C)cccc1C (stereo not given)",
    "IC50": "9.78 µM (active)"
  },
  {
    "Compound": "COC(=O)c1ccc(C(=O)N2CCCC(Nc3ccc(C(C)C)cc3)C2)nc1 (stereo not given)",
    "IC50": "17.9 µM (active)"
  },
  {
    "Compound": "Cc1cc(/C=C2\\C(=O)NC(=O)N(c3ccc(Cl)cc3)C2=O)c(C)n1-c1sc2c(c1C#N)CCCC2",
    "IC50": "14.7 µM (active)"
  }
]

====

# Measured target: CAAX prenyl protease 2 (Saccharomyces cerevisiae S288c)
# Sequence (Q03530 whole entry): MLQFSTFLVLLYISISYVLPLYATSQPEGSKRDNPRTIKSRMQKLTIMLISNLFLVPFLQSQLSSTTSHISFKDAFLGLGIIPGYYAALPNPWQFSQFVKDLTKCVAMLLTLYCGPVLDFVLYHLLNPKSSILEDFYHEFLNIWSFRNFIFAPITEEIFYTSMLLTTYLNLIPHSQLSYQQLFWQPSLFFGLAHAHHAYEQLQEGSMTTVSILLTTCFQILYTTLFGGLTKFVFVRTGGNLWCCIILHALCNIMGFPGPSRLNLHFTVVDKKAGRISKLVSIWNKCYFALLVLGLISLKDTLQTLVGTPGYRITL
# Assay type: biochemical
The source made the active and inactive calls.
Measure: AC50

[
  {
    "Molecule": "COC(=O)C1=CN(CC2CCCO2)C=C(C(=O)OC)C1c1cccc(O)c1 (stereo not given)",
    "Measured target": "CAAX prenyl protease 2 (Saccharomyces cerevisiae S288c)",
    "Observed result": "10.6 µM (active)"
  },
  {
    "Molecule": "CCC(C)NC(=O)CSC1=Nc2ccccc2C2=NC(CC(=O)NCc3ccc(F)cc3)C(=O)N12 (stereo not given)",
    "Measured target": "CAAX prenyl protease 2 (Saccharomyces cerevisiae S288c)",
    "Observed result": "15.8 µM (active)"
  },
  {
    "Molecule": "Cc1cccc(NC(=O)C2(c3ccc([N+](=O)[O-])cc3)CCCC2)c1",
    "Measured target": "CAAX prenyl protease 2 (Saccharomyces cerevisiae S288c)",
    "Observed result": "14 µM (active)"
  },
  {
    "Molecule": "CCc1cc(=O)oc2c3c(cc(OCC(=O)NCCCCCC(=O)O)c12)OC(C)(C)CC3",
    "Measured target": "CAAX prenyl protease 2 (Saccharomyces cerevisiae S288c)",
    "Observed result": "14 µM (active)"
  },
  {
    "Molecule": "COc1ccccc1-c1cc(C(F)(F)F)nc(S(=O)(=O)CCCC(=O)NCc2ccc(F)cc2)n1",
    "Measured target": "CAAX prenyl protease 2 (Saccharomyces cerevisiae S288c)",
    "Observed result": "7.9 µM (active)"
  }
]

====

Catalogue of AC50 values
# Measured target: Cytochrome P450 2C19 (Homo sapiens, UniProt P33261)
# Sequence (P33261 whole entry): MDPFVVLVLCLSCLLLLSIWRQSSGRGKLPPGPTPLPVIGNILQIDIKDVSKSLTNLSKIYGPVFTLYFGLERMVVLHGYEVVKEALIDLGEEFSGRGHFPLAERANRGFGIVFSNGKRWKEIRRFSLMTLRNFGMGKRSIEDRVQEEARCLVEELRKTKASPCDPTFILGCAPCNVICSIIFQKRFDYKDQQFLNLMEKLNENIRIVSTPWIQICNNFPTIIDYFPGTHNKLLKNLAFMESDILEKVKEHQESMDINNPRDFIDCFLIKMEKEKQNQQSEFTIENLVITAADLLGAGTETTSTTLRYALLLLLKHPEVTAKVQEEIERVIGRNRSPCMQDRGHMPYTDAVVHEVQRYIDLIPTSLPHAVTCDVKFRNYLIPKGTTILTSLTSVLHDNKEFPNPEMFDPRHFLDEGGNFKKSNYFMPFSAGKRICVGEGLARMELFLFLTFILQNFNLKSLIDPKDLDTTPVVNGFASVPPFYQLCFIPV
# Protocol: Cytochrome panel assay with activity outcomes. Panel member name: p450-cyp2c19 Compounds with AC50 equal or less than 10 uM are considered active
# Assay type: functional
# Test parameters: read-out: AC50

[
  {
    "Compound": "O=C(NNC(=O)c1sc2ccccc2c1Cl)Nc1ccc(Cl)cc1",
    "Measured target": "Cytochrome P450 2C19 (Homo sapiens, UniProt P33261)",
    "AC50": "3.55 µM (inconclusive)"
  },
  {
    "Compound": "CCCCNC(=O)c1cc2nc3c(c(C(F)(F)F)n2n1)CCc1ccccc1-3",
    "Measured target": "Cytochrome P450 2C19 (Homo sapiens, UniProt P33261)",
    "AC50": "15.8 µM (inconclusive)"
  },
  {
    "Compound": "COC(=O)N1CCC2(CCCN(C(c3ccccc3)c3ccccc3)C2)CC1",
    "Measured target": "Cytochrome P450 2C19 (Homo sapiens, UniProt P33261)",
    "AC50": "25.1 µM (inconclusive)"
  },
  {
    "Compound": "NC(=O)c1ccc(N2CCCCC2)c(N2C(=O)C3CC=CCC3C2=O)c1 (stereo not drawn)",
    "Measured target": "Cytochrome P450 2C19 (Homo sapiens, UniProt P33261)",
    "AC50": "39.8 µM (inconclusive)"
  },
  {
    "Compound": "COCCn1c(=O)c(-c2ccccc2)nc2cnc(N(C)C)nc21",
    "Measured target": "Cytochrome P450 2C19 (Homo sapiens, UniProt P33261)",
    "AC50": "2 µM (inconclusive)"
  },
  {
    "Compound": "CCOP(=O)(CN(CC)CCNP(=O)(OCC)OCC)OCC",
    "Measured target": "Cytochrome P450 2C19 (Homo sapiens, UniProt P33261)",
    "AC50": "39.8 µM (inconclusive)"
  },
  {
    "Compound": "Cc1nc2cc(NC(=O)CSc3nc4c(C)cccc4cc3C#N)ccc2s1",
    "Measured target": "Cytochrome P450 2C19 (Homo sapiens, UniProt P33261)",
    "AC50": "0.251 µM (inconclusive)"
  },
  {
    "Compound": "O=C(CCCN1CCN(c2ccccn2)CC1)c1ccc(F)cc1",
    "Measured target": "Cytochrome P450 2C19 (Homo sapiens, UniProt P33261)",
    "AC50": "15.8 µM (inconclusive)"
  }
]

====

# Protocol: NIH-3T3 fibroblast cytotoxicity, dose response, cytotoxicity control, cell-based, fluorescence, Alamar Blue, secondary assay (AID 2327);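 also: NIH-3T3 mouse fibroblasts cultured with fluconazole at 8 µg/mL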
# Assay type: functional
Active and inactive are the calls of the source.

[
  {
    "Compound": "O=c1c2ccccc2nc(-c2ccc([N+](=O)[O-])cc2)n1O",
    "EC50": "> 150 µM (inactive)"
  },
  {
    "Compound": "Cc1cccc(N2NC(=O)/C(=C/c3ccc(-c4ccc(Cl)c(C(=O)O)c4)o3)C2=O)c1",
    "EC50": "> 150 µM (inactive)"
  },
  {
    "Compound": "Cc1cc2c(cc(C(=O)OCC(=O)NCc3ccco3)n2C)s1",
    "EC50": "22.4 µM (active)"
  },
  {
    "Compound": "CCCCC(=O)NC(c1ccccc1)c1ccc2cccnc2c1O (centres undefined)",
    "EC50": "19.9 µM (inconclusive)"
  }
]

====

Catalogue of AC50 values
# Measured target: DNA repair protein RAD52 homolog (Homo sapiens, UniProt P43351)
# Sequence (P43351 whole entry): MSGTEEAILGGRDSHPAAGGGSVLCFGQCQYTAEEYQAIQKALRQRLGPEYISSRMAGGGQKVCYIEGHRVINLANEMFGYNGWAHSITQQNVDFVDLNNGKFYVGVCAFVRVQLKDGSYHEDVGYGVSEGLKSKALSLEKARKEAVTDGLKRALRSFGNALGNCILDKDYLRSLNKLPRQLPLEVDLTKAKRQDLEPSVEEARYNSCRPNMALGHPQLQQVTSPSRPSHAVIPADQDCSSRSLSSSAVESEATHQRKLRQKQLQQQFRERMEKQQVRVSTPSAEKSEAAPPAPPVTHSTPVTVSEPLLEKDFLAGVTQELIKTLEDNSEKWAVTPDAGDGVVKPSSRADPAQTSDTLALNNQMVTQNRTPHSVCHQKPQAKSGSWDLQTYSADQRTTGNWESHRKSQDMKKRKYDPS
# Format: functional, biochemical
The source made the active and inactive calls.

[
  {
    "Smiles repr": "CCOC(=O)c1c(CN(C)C)n(C)c2c(O)c(N=NC(N)=O)c3ccc(Br)cc3c12",
    "AC50": "11.6 µM (active)"
  },
  {
    "Smiles repr": "CN(C)CCNC(=O)c1cccc(-c2cnc3c(NC=O)cc(-c4cccc(C(F)(F)F)c4)cn23)c1",
    "AC50": "2.4 µM (active)"
  },
  {
    "Smiles repr": "CCN(CC)CCCN(C(=O)c1ccc(Br)cc1)c1nc(-c2ccc(OC)cc2)cs1",
    "AC50": "17.2 µM (active)"
  },
  {
    "Smiles repr": "COc1ccc(CCNc2c3ccccc3nc3ccccc23)cc1OC",
    "AC50": "6.38 µM (active)"
  },
  {
    "Smiles repr": "Cc1csc(N2CCN(c3cc4c(cc3Cl)nc(-c3ccncc3)n4CCCN3CCCC3)CC2)n1",
    "AC50": "4.61 µM (active)"
  }
]

====

# Measured target: FAD-linked sulfhydryl oxidase ALR (Homo sapiens, UniProt P55789)
# Sequence (P55789 whole entry): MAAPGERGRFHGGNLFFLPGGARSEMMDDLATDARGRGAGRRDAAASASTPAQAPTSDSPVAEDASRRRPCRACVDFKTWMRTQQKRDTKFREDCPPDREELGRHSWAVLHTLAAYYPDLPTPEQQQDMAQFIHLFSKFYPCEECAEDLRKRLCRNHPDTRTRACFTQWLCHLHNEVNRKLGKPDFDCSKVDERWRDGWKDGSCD
# Protocol: ALR-catalysed DTT oxidation blockers – biochemical, H2O2 detection, luminescence, cherry-pick, dose response (AID 493248)
Counter-ions that a name gives are not always drawn. Activity calls are given as the source filed them.
Measure: AC50

[
  {
    "Compound": "COc1cc(/C=N/Nc2ccccc2)ccc1O",
    "Observed result": "887 nM (active)"
  },
  {
    "Compound": "COc1ccc(NC2CCCN(C(=O)c3csc(C(C)C)n3)C2)cc1 (configuration not stated)",
    "Observed result": "226 nM (active)"
  },
  {
    "Compound": "CCn1cnc2cc(NCc3ccc(N(C)C)cc3)ccc21",
    "Observed result": "5860 nM (active)"
  },
  {
    "Compound": "CCN(CC)c1ccc(/C=C2\\SC(=N)NC2=O)cc1",
    "Observed result": "2740 nM (active)"
  },
  {
    "Compound": "Cc1ccc(S(=O)(=O)Nc2ccc(N(C)C)cc2)cc1",
    "Observed result": "4460 nM (active)"
  },
  {
    "Compound": "CCN(CC)c1ccc(N=C2C(=O)Nc3ccccc32)cc1",
    "Observed result": "2060 nM (active)"
  },
  {
    "Compound": "Cn1c(-c2cccc([N+](=O)[O-])c2)cnc1NCc1cccc(F)c1",
    "Observed result": "1920 nM (active)"
  },
  {
    "Compound": "CCNc1ccc(C(=O)O)cc1N",
    "Observed result": "1410 nM (active)"
  },
  {
    "Compound": "O=C(NC1CCCCCC1)C1CCCN1S(=O)(=O)c1cccc2cccnc12 (configuration not stated)",
    "Observed result": "10700 nM (active)"
  },
  {
    "Compound": "CCCN1C(=O)c2ccccc2NC1c1ccc(OC)cc1O (configuration not stated)",
    "Observed result": "12200 nM (active)"
  },
  {
    "Compound": "CC(C)c1ccc(NC2CCCN(C(=O)C3=NN(C)C(=O)CC3)C2)cc1 (configuration not stated)",
    "Observed result": "27700 nM (active)"
  },
  {
    "Compound": "CC(CN1c2ccccc2Sc2ccccc21)N(C)C (configuration not stated) [PROMETHAZINE HYDROCHLORIDE]",
    "Observed result": "367 nM (active)"
  }
]
